Known OD450 of a selection of binders
Biological target: T1, Peptide B (human PAR-2), unbiotinylated (Human)
T1 construct: also called Peptide B No Biotin
T1 peptide: SLIGKVDGTSHVTG
Assay: peptide ELISA

- binder: "H2M611N (antibody, V domains shown, chimeric: human variable, mouse constant domains) VH: EVQLLESGGGLVQPGGSLRLSCAASGFTFSSYAMTWVRQAPGKGLYWVSAISGSGGSAYYADSVKGRFTISRDNSKNTLYLQMNSLRAEDTAVYYCAKEGDSGYDLDYWGRGTLVTVSS VL: DIQMTQSPSSLSASVGDRVTITCRARQGISNYLAWLQQKPGKAPKSLIYAASSLQSGVPSKFSGSGSGTDFTLTISSLQPEDFATYYCQQYKSSPLTFGGGTKVEIK"
  valueKind: "OD450"
  testValue: "1 to 4 od"
- binder: "H1M619N (antibody, V domains shown, chimeric: human variable, mouse constant domains) VH: EVQLVESGGGLVQAGRSLRLSCAASGFTFDDYAMHWVRQAPGKGLEWVSGISWNSGSRGYADSVKGRFTISRDNAKNSLHLQMYSLRAEDTALYYCAKENWSFDYWGQGTLVTVSS VL: DIVMTQTPLSSPVTLGQPASISCRSSQSLVHSDGNTYLSWLQQRPGQPPRLLIYKISYRFSGVPDRFSGSGAGTDFTLKISRVATEDVGVYYCMQATQLPYTFGQGTKLEIK"
  valueKind: "OD450"
  testValue: "0 to 0.09 od"
- binder: "H3M620N (antibody, V domains shown, chimeric: human variable, mouse constant domains) VH: EVQLVESGGNVVRPGGSLRLSCAASGFTFDDYGMTWVRQVPGKGLEWVSGINWNGGSTDYADSVKGRFTISRDNAKNSLYLQMNSLRAEDTALYYCARDKGFYGMDVWGQGTTVTVSS VL: DIVMTQSPDSLAVSLGERATINCKSSQNPLYNSNKKKYLAWYQQKPGQPPKLVIYWASTRESGVPDRFSGSGSGTDFTLTITSLQAEDVAVYYCQQYYSTPYTFGQGTKLEIK"
  valueKind: "OD450"
  testValue: "0 to 0.09 od"

Please find the next binder below.
Q. Consider the binder shown here: H2M618N (antibody, V domains shown, chimeric: human variable, mouse constant domains) VH: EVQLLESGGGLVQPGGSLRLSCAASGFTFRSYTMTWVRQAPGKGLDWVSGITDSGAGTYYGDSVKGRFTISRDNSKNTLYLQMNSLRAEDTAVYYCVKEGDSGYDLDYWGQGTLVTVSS VL: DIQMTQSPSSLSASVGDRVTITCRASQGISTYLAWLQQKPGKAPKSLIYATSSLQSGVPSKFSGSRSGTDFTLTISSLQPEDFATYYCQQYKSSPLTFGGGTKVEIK What is its recorded OD450?
A. 1 to 4 od
